System: monotropic HIV strain Ba-L
Test: In vitro model c) (standard infection experiment), MO-DC/CD4(+) T cell co-cultures, ELISA for HIV antigens after 14 days
Type: cell-based
Conditions: Human immunodeficiency virus 1, BAL, T-cell, 336 h; concentration suppressing 50% of viral replication at end of primary culture (14 days); test compound present throughout; MOI 10^-3
test readout: EC50 (nM)
Write it as a number; the unit nM goes unstated.

[ask] Reported EC50 for Cc1cc(/C=C/c2ccncc2)cc(C)c1Nc1ccnc(Nc2ccc(C#N)cc2)n1 [Compound 162] : what is it?
[reply] 5.5
